- measured target: ABRAXANE® (Homo sapiens, UniProt P02768)
- Construct: purchased Celgene Corp
- assay protocol: Association and dissociation of AVASTIN (or IgG) with ABRAXANE (streptavidin sensor)
- Type: binding
- measurement setup: biotinylated AVASTIN on streptavidin sensor, 1 mg/mL ABRAXANE, second experiment; read-out: dissociation constant
pKd: −log10 of the molar value.
measured parameter: pKd

substance="AVASTIN®: humanized monoclonal antibody that binds to vascular endothelial growth factor A" measured_target="ABRAXANE® (Homo sapiens, UniProt P02768)" recorded_number=4.77

###

- measured target: ABRAXANE® (Homo sapiens, UniProt P02768)
- Construct: purchased Celgene Corp
- assay protocol: Association and dissociation of AVASTIN (or IgG) with ABRAXANE (streptavidin sensor)
- Type: binding
- measurement setup: biotinylated AVASTIN on streptavidin sensor, 1 mg/mL ABRAXANE, first experiment; listed as bevacizumab; read-out: dissociation constant
pKd: −log10 of the molar value.
measured parameter: pKd

substance="AVASTIN®: humanized monoclonal antibody that binds to vascular endothelial growth factor A" measured_parameter=pKd recorded_number=6.24
